src = ChEMBL document CHEMBL5042532

- MEASUREMENT DESCRIPTION: Clearance in CB17-SCID mouse mouse at 50 mg/kg, iv
- Assay type: ADME, organism-based
- CONDITION DETAILS: in vivo
EXPERIMENTAL ENDPOINT: clearance (mL/min/kg)
# number only, unit mL/min/kg dropped from output

Quick one: clearance of `CN(C)S(=O)(=O)Nc1ccc(OCc2ccccc2)cc1` ?
366

###

- MEASUREMENT DESCRIPTION: Volume of distribution in CB17-SCID mouse mouse at 50 mg/kg, iv
- Type: ADME, organism-based
- CONDITION DETAILS: in vivo
EXPERIMENTAL ENDPOINT: Vd
Could you write the number and then its unit?

# lookup: Vd of `CN(C)S(=O)(=O)Nc1ccc(OCc2ccccc2)cc1`
2.99 L/kg

###

- MEASUREMENT DESCRIPTION: Cmax in CB17-SCID mouse mouse at 50 mg/kg, iv
- Format: ADME, organism-based
- Set-up: route intravenous, dose 50 mg/kg
- CONDITION DETAILS: in vivo
EXPERIMENTAL ENDPOINT: Cmax (ng/mL)
Record the value in ng/mL, omitting the unit from your answer.

Cmax for `CN(C)S(=O)(=O)Nc1ccc(OCc2ccccc2)cc1` ?
890
